Listed below are compounds with IC50 for Tyrosine-protein kinase JAK3 (Homo sapiens), each taken from published literature.

Consider the worked cases shown below.
compound=CN1CCC(C(=O)N2CC[C@@H](Nc3n[nH]c4nccc(Oc5ccc(C(=O)Nc6cc(C(F)(F)F)ccn6)cc5)c34)C2)CC1 measured="> 10000 nM"
compound=C=CC(=O)N1CC[C@H]1Cn1nc(-c2ccc(Oc3ccccc3)cc2)c2cncnc21 measured="> 500 nM"
compound="CC(C)n1cc(-c2cc3nccn3c(-c3cnn(C(CC#N)C4CC4)c3)n2)cn1 (stereo not shown)" measured="100 to 1000 nM"
compound=CS(=O)(=O)Nc1cccc(-c2cnc3ccccc3n2)c1 measured="> 50000 nM"
compound="C=CC(=O)Nc1cccc(Oc2nc(Nc3ccc(C(=O)N4CCC(NC)C4)cc3)nc3ccsc23)c1 (stereo not shown)" measured="≤ 50 nM"
compound=Cc1cc(Nc2ncc(Cl)c(NC3CCN(c4ccc(C#N)nn4)CC3)n2)nn1C measured="73 nM"
compound=Cc1cnc2nc1NCCCCCNC(=O)c1ccc(cc1F)-c1cnc(F)c(c1)N2 measured="101 to 1000 nM"
compound=N#CCC(=O)N1CCC[C@@H](Nc2c(-c3cncs3)cnc3[nH]ccc23)C1 measured="10 to 100 nM"
compound=CCC(CC)n1cc(-c2nc(-c3cnn(CCN4CCNC(=O)C4)c3)cn3nccc23)cn1 measured="1000 to 10000 nM"
compound=C=CC(=O)N1CCC[C@@H](Nc2c(C(=O)OCC)cnc3[nH]ccc23)C1 measured="100 to 1000 nM"

Exercise: What IC50 value was documented for this compound, Cc1cc(Nc2nc(N[C@@H]3C[C@H]4CC[C@@H](C3)N4CCC#N)nc3cnccc23)n[nH]1 ?
Solution: 26.3 nM

Exercise: Also need Cn1cc(-c2cc3nccn3c(-c3cnn(C(CC#N)CC#N)c3)n2)cn1 , thanks.
Solution: 100 to 1000 nM

Exercise: Follow-up entry: C=CC(=O)N1CC(CNc2nc(Nc3cnn(C(C)C)c3)nc3ccsc23)C1
Solution: ≤ 10 nM

Exercise: For CCCOC(=O)c1cnc2[nH]ccc2c1-c1cnn([C@H](CC#N)C2CCCC2)c1 then?
Solution: 10 to 100 nM

Exercise: Same for CNC(=O)c1n[nH]c2nc(-c3cc(F)c(O)cc3CC(F)(F)F)nc(NCc3ccccc3N(C)S(=O)(=O)NC)c12
Solution: 120 nM

Exercise: Similarly, CCC(Cn1ccc2cnc(Nc3cnn(CC(=O)OC[C@@H](C)O)c3)nc21)C(C)C (stereo partly shown) ?
Solution: < 100 nM

Exercise: Let us now turn to CC#CC(=O)N1CCC(Cn2nc(-c3ccc(Oc4ccccc4)cc3)c3cncnc32)CC1
Solution: > 500 nM

Exercise: // query: C=CC(=O)Nc1cccc(Oc2nc(Nc3ccc(N4CCC(CO)CC4)cc3)nc3ccsc23)c1
Solution: 50 to 100 nM

====

The entries below pair compounds with IC50 values for Tyrosine-protein kinase JAK3 (Homo sapiens), as found in several publications.

chemicalsmiles=C=CC(=O)N1CC(CNc2nc(Nc3cnn(C)c3)nc3ccsc23)C1 measured="≤ 10 nM"

Exercise: Which IC50 value belongs to CN(c1ncnc2[nH]ccc12)[C@H]1C[C@@H](CS(=O)(=O)CCC2CC2)C1 ?
Solution: > 10000 nM

Exercise: Quick one: Cc1ccc(NC(=O)Nc2cccc(C(F)(F)F)c2)cc1-c1ccc2c(c1)[nH]c1ncncc12
Solution: ≤ 500 nM

Exercise: Would you kindly repeat that for [2H]C([2H])([2H])N(C/C=C/C(=O)Nc1cccc(Nc2cc(Nc3ccc(F)c(Cl)c3)ncn2)c1)C([2H])([2H])[2H] ?
Solution: 10 to 100 nM
